Value source: patent US7262185B2

VALUE TYPE: melting point

Example entries and their recorded answers appear below.
MOLECULE | melting point
CCCCOCCOc1ccc(-c2ccc3c(c2)C=C(C(=O)Nc2ccc(C(O)c4cccc[n+]4[O-])c(OCC(F)(F)F)c2)CCN3CC(C)C)cc1 (centres unmarked) | 118 to 123 °C
CCCCOCCOc1ccc(-c2ccc3c(c2)C=C(C(=O)Nc2ccc(C[S+]([O-])c4nncn4C)cc2)CCN3CC(C)C)cc1 (centres unmarked) | 87 to 89 °C
CCCCOCCOc1ccc(-c2ccc3c(c2)C=C(C(=O)Nc2ccc(C(O)c4cc(C)cc[n+]4[O-])cc2)CCN3)cc1 (centres unmarked) | 198 to 201 °C (dec.)
CCCCOCCOc1ccc(-c2ccc3c(c2)C=C(C(=O)Nc2ccc(CC(=O)c4nccn4CCC)cc2)CCN3CC(C)C)cc1 | 136.5 to 138 °C
CCCCOCCOc1ccc(-c2ccc3c(c2)C=C(C(=O)Nc2ccc(C(O)c4ccc(C)cn4)cc2)CCN3C(=O)C(F)(F)F)cc1 (centres unmarked) | 110 to 113 °C

Query string: Query (molecule): CCCCOCCOc1ccc(-c2ccc3c(c2)C=C(C(=O)Nc2ccc(C(O)c4cccc[n+]4[O-])c(OC)c2)CCN3)cc1 (centres unmarked) ; field requested: melting point
Result string: 116 to 118 °C

Query string: Which value of melting point has been reported for "CCCCOCCOc1ccc(-c2ccc3c(c2)C=C(C(=O)Nc2ccc(SCc4nccn4CCCC(N)=O)cc2)CCN3CC(C)C)cc1" in the records?
Result string: 142 to 143 °C

Query string: Look up melting point for this molecule: CCCCOCCOc1ccc(-c2ccc3c(c2)C=C(C(=O)Nc2ccc(C(O)c4ccc(Cl)c[n+]4[O-])cc2)CCN3CC(C)C)cc1 (centres unmarked)
Result string: 137 to 139 °C

---

Property: melting point; scope: individual compounds

Query string: Name the reported melting point value associated with the compound CCCCOCCOc1ccc(-c2ccc3c(c2)C=C(C(=O)Nc2ccc([C@H](O)c4cccc[n+]4[O-])cc2)CCN3C=O)cc1 [Compound 77]
Result string: 120 to 125 °C

Query string: Find the recorded melting point belonging to CCCCOCCOc1ccc(-c2ccc3c(c2)C=C(C(=O)Nc2ccc(C(O)c4c(OCCC)ccc[n+]4[O-])cc2)CCN3)cc1 (stereo not shown) [Compound 113] and report it.
Result string: 148 to 149 °C

Query string: # query: melting point of entry CCCCOCCOc1ccc(-c2ccc3c(c2)C=C(C(=O)Nc2ccc4c(c2)nc([S+]([O-])Cc2cncn2CCC)n4C)CCN3CC(C)C)cc1 (stereo not shown) [Compound 445]
Result string: 149.5 to 151 °C

Query string: // lookup melting point for CCCCOCCOc1ccc(-c2ccc3c(c2)C=C(C(=O)Nc2ccc(C(O)c4cc(C)cc[n+]4[O-])c(C(F)(F)F)c2)CCN3)cc1 (stereo not shown) [Compound 16]
Result string: 124 to 128 °C

---

VALUE TYPE: melting point

A selection of reference data follows.
MOLECULE | VALUE MEASURED
CCCCOCCOc1ccc(-c2ccc3c(c2)C=C(C(=O)Nc2ccc([C@H](O)c4cccc[n+]4[O-])cc2)CCN3Cc2cnn(C)c2)cc1 [Compound 87] | 94 to 97 °C
CCCCOCCOc1ccc(-c2ccc3c(c2)C=C(C(=O)Nc2ccc(C(O)c4ccc(Cl)c[n+]4[O-])cc2)CCN3C(=O)C(F)(F)F)cc1 (stereo not drawn) [Compound 108] | 200 to 203 °C
CCCCOCCOc1ccc(-c2ccc3c(c2)C=C(C(=O)Nc2ccc(C(O)c4cccc(C)[n+]4[O-])cc2)CCN3CC(C)C)cc1 (stereo not drawn) [Compound 98] | 114 to 116 °C

Query string: // lookup melting point for CCCCOCCOc1ccc(-c2ccc3c(c2)C=C(C(=O)Nc2ccc(SCc4nccn4CCCC(=O)OCC)cc2)CCN3CC(C)C)cc1 [Compound 413]
Result string: 103 to 104 °C

Query string: Consider the molecule CCCCOCCOc1ccc(-c2ccc3c(c2)C=C(C(=O)Nc2ccc([S+]([O-])Cc4nnc(SC)n4CCC)cc2)CCN3CC(C)C)cc1 (stereo not drawn) [Compound 149] and give its measured melting point.
Result string: 150 to 152 °C

Query string: Consider the molecule CCCCOCCOc1ccc(-c2ccc3c(c2)C=C(C(=O)Nc2ccc(SCCn4cnnc4)cc2)CCN3CCC)cc1 [Compound 156] and give its measured melting point.
Result string: 114 to 115 °C

Query string: Tell me the measured melting point of CCCCOCCOc1ccc(-c2ccc3c(c2)C=C(C(=O)Nc2ccc(SCc4nncn4CCC)c(C(F)(F)F)c2)CCN3CC(C)C)cc1 [Compound 42] , please.
Result string: 131 to 133 °C

Query string: I have this molecule here, CCCCOCCOc1ccc(-c2ccc3c(c2)C=C(C(=O)Nc2ccc(C(O)c4cccc(C)[n+]4[O-])cc2)CCN3)cc1 (stereo not drawn) [Compound 97] , and I need its recorded melting point.
Result string: 175 to 177 °C

Query string: I'd like to know its melting point. The molecule in question is CCCCOCCOc1ccc(-c2ccc3c(c2)C=C(C(=O)Nc2ccc([C@@H](O)c4cccc[n+]4[O-])cc2)CCN3C=O)cc1 [Compound 78]
Result string: 104 to 106 °C

Query string: # get_value(readout='melting point', item= CCCCOCCOc1ccc(-c2ccc3c(c2)C=C(C(=O)Nc2ccc([S+]([O-])Cc4ncn(C)n4)cc2)CCN3CC(C)C)cc1 (stereo not drawn) [Compound 126] )
Result string: 112 to 114 °C

Query string: For CCCCOCCOc1ccc(-c2ccc3c(c2)C=C(C(=O)Nc2ccc(CSc4nnc(C)o4)cc2)CCN3CC(C)C)cc1 [Compound 116] , what is its reported melting point?
Result string: 107 to 109 °C

Query string: # query: melting point of entry CCCCOCCOc1ccc(-c2ccc3c(c2)C=C(C(=O)Nc2ccc(S(=O)(=O)Cc4ncn(C)n4)cc2)CCN3CC(C)C)cc1 [Compound 127]
Result string: 205 to 208 °C

Query string: Recorded melting point for CCCCOCCOc1ccc(-c2ccc3c(c2)C=C(C(=O)Nc2ccc([C@H](O)c4ccccn4)cc2)CCN3C(=O)C(F)(F)F)cc1 [Compound 79] , please?
Result string: 100 to 102 °C

Query string: Find the recorded melting point belonging to CCCCOCCOc1ccc(-c2ccc3c(c2)C=C(C(=O)Nc2ccc(SCc4cncn4CC(N)=O)cc2)CCN3CC(C)C)cc1 [Compound 429] and report it.
Result string: 152 to 154 °C

Query string: Returns the measured melting point for the input molecule. Input: CCCCOCCOc1ccc(-c2ccc3c(c2)C=C(C(=O)Nc2ccc(Sc4cccc5nc(C)cn45)cc2)CCN3CC(C)C)cc1 [Compound 170]
Result string: 164 to 166 °C

Query string: Query (molecule): CCCCOCCOc1ccc(-c2ccc3c(c2)C=C(C(=O)Nc2ccc(N(C)Cc4nncn4CCC)cc2)CCN3CCC)cc1 [Compound 151] ; field requested: melting point
Result string: 131 to 133 °C

Query string: // query melting point value for entry CCCCOCCOc1ccc(-c2ccc3c(c2)C=C(C(=O)Nc2ccc([C@H](O)c4cccc[n+]4[O-])cc2)CCN3Cc2nccs2)cc1 [Compound 86]
Result string: 164 to 165 °C

Query string: Please report the recorded melting point for CCCCOCCOc1ccc(-c2ccc3c(c2)C=C(C(=O)Nc2ccc(CCCn4cnnc4)cc2)CCN3CC(C)C)cc1 [Compound 63] .
Result string: 165 to 167 °C
